# measured on: T1, Human ST2 (human, UniProt Q01638 19-328, limits assumed)
# T1 construct: also called human ST2 protein; Interleukin 1 receptor-like 1
# T1 sequence (looked up): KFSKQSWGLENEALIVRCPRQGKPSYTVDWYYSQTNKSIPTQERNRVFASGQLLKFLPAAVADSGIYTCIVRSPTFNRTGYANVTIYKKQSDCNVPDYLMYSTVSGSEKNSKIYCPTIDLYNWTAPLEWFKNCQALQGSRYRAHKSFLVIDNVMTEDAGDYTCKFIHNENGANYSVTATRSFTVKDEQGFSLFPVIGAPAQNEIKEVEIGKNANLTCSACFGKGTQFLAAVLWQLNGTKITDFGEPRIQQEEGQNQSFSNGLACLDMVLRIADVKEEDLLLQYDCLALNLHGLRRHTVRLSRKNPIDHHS
# test: SPR (Carterra), antibody immobilized, ST2 analyte
assay metric: pKd
Conceptually, pKd converts a concentration in mol/L into minus its log10.

# count of solved cases: 2
Human ST2 IgG1 Antibody 60 (antibody, V domains shown, IgG1; also called ST2 Antibody 60) VH: QVQLVQSGAEVKKPGASVKVSCKASGYTFTDHYLHWVRQAPGQGLEWMGIINPSGGYTSHAQKFQGRVTMTRDTSTSTVYMELSSLRSEDTAVYYCARDRFRELLGSRYYGMDVWGQGTTVTVSS VL: DIQMTQSPSSLSASVGDRVTITCRASQDLSNHLAWYQQKPGKAPKLLIYAASTLQSGVPSRFSGSGSGTDFTLTISSLQPEDFATYYCQQYHDWPLTFGQGTKVEIKR = 5.96
Human ST2 IgG1 Antibody 7 (antibody, V domains shown, IgG1; also called ST2 Antibody 7) VH: QVQLVQSGAEVKKPGASVKVSCKASGYTFTDSYIHWVRQAPGQGLEWMGWMNPNSGNTGYAQKFQGRVTMTRDTSTSTVYMELSSLRSEDTAVYYCARGVFDYGDYGYYYHYMDVWGKGTTVTVSS VL: DIVMTQSPLSLPVTPGEPASISCRSSQSLLHSNGYNYLDWYLQKPGQSPQLLIYGASTLQPGVPDRFSGSGSGTDFTLKISRVEAEDVGVYYCMQGTQWPTFGQGTKLEIKR = 7.82

Here's the next entry for you.
binder Human ST2 IgG1 Antibody 48 (antibody, V domains shown, IgG1; also called ST2 Antibody 48) VH: EVQLLQSGGGLVQPGGSLRLSCAASEFTFSNAWMSWVRQAPGKGLEWVSTISGTSRYTYYADSVKGRFTISRDNSKNSLYLQMNSLRAEDTAVYYCARDQDGRLDYWGQGTLVTVSS VL: DIQMTQSPSSLSASVGDRVTITCRASQNIGSWLAWYQQKPGKAPKLLIYRASTLQSGVPSRFSGSGSGTDFTLTISSLQPEDFATYYCQQSYSTPYTFGQGTKVEIKR , pKd observed: 6.84
